Every entry's value here was drawn from ChEMBL document CHEMBL1157361.

# PROTOCOL SUMMARY: Drug level in healthy human at 500 mg, po twice daily coadministered with ritonavir 200 mg, po twice daily for 21 days with additional single dose of 551 mg, po on day 7 measured 12 hrs postdose
# Format: ADME, organism-based
# CONDITION DESCRIPTION: plasma

- COMPOUND: "CCC[C@@]1(CCc2ccccc2)CC(O)=C([C@H](CC)c2cccc(NS(=O)(=O)c3ccc(C(F)(F)F)cn3)c2)C(=O)O1 [TIPRANAVIR]"
  concentration at 12 h: "25.9 µM"

* * *

# PROTOCOL SUMMARY: Cmax in healthy human at 500 mg, po twice daily coadministered with ritonavir 200 mg, po twice daily for 21 days with additional single dose of 551 mg, po on day 7
# Type: ADME, organism-based
# Design: dose 500 mg, route oral
# CONDITION DESCRIPTION: in vivo

- COMPOUND STRUCTURE: "CCC[C@@]1(CCc2ccccc2)CC(O)=C([C@H](CC)c2cccc(NS(=O)(=O)c3ccc(C(F)(F)F)cn3)c2)C(=O)O1"
  Cmax: "99.4 µM"

* * *

# PROTOCOL SUMMARY: AUC (0 to 12 hrs) in healthy human at 500 mg, po twice daily coadministered with ritonavir 200 mg, po twice daily for 21 days with additional single dose of 551 mg, po on day 7
# Format: ADME, organism-based
# Set-up: dose 500 mg, time < 12 hr, route oral
# CONDITION DESCRIPTION: plasma

- COMPOUND STRUCTURE: "CCC[C@@]1(CCc2ccccc2)CC(O)=C([C@H](CC)c2cccc(NS(=O)(=O)c3ccc(C(F)(F)F)cn3)c2)C(=O)O1"
  UNIT: "µM·h"
  AUC(0-t) at 12 h: 657

* * *

# PROTOCOL SUMMARY: Half life in healthy human at 500 mg, po twice daily coadministered with ritonavir 200 mg, po twice daily for 21 days with additional single dose of 551 mg, po on day 7
# Assay type: ADME, organism-based
# CONDITION DESCRIPTION: in vivo
OBSERVABLE: half-life (h)

- COMPOUND STRUCTURE: "CCC[C@@]1(CCc2ccccc2)CC(O)=C([C@H](CC)c2cccc(NS(=O)(=O)c3ccc(C(F)(F)F)cn3)c2)C(=O)O1"
  OBSERVABLE: "half-life"
  UNIT: "h"
  READOUT VALUE: 4.6

* * *

# PROTOCOL SUMMARY: Tmax in healthy human at 500 mg, po twice daily coadministered with ritonavir 200 mg, po twice daily for 21 days with additional single dose of 551 mg, po on day 7
# Format: ADME, organism-based
# CONDITION DESCRIPTION: in vivo

- COMPOUND STRUCTURE: "CCC[C@@]1(CCc2ccccc2)CC(O)=C([C@H](CC)c2cccc(NS(=O)(=O)c3ccc(C(F)(F)F)cn3)c2)C(=O)O1"
  Tmax / h: 2.9
